# experimental_target: T1, SsPCP, PCP of a thaxtomin cluster from Streptomyces scabiei 87.22
# T1 chain: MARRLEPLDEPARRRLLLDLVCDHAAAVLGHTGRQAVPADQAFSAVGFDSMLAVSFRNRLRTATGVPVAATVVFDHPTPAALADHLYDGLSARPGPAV
What Km was measured for each of the following?
Number first, unit second.

Ask: Quick one: give measured Km for APPT, Sfp-like phosphopantetheinyl transferase (PPTase) from Anabaena sp. PCC7120 (protein) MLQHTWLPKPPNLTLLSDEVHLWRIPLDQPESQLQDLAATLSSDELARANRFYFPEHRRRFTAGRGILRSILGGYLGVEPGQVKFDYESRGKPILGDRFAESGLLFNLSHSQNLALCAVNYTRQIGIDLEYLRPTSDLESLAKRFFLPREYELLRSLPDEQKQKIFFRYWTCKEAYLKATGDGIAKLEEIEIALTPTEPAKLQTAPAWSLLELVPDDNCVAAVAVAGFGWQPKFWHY
Reply: 7.4 µM

Ask: Quick one: give measured Km for MPPT, Sfp-like phosphopantetheinyl transferase (PPTase) from Microcystis aeruginosa NIES843 (protein) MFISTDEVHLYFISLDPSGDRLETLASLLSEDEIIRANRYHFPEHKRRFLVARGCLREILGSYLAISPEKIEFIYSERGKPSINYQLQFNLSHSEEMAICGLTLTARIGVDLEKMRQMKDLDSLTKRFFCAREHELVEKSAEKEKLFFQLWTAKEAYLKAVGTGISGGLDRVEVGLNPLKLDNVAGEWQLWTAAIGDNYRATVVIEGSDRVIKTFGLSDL
Reply: 9.1 µM

Ask: Quick one: give measured Km for Sfp, phosphopantetheinyl transferase from Bacillus subtilis (protein) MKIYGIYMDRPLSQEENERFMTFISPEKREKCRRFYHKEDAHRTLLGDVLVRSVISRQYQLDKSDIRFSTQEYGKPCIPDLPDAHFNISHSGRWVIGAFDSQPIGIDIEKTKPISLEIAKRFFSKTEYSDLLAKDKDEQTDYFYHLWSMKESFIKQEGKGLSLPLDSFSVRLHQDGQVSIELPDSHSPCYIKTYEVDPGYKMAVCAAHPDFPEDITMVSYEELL
Reply: 7.9 µM
